# measurement_protocol: in vitro
# reported_conditions: human, hela cells, % viability
Rule for this label: true means viability at 28.5 h, 10 µM is less than 90%; false means viability at 28.5 h, 10 µM is at least 90%.

compound="CCc1ccc2c(c1)C(CCNC(=O)CCc1ccsc1)C(=O)N2 (centres unmarked)" qualitative_label=false
compound=CN(C)CCN(C)C1CCN(Cc2ccccc2)CC1 qualitative_label=false
compound="Cc1coc(C)c1C(=O)CC1(O)C(=O)N(CCCC#N)c2ccccc21 (centres unmarked)" qualitative_label=true
compound="CC(C)(CO)C(O)C(=O)NC1CCCC(C(=O)O)C1 (centres unmarked)" qualitative_label=false
compound="O=C(c1ccoc1)N1CCC2(CCCN(Cc3ccc(OC(F)(F)F)cc3)C2)C1 (centres unmarked)" qualitative_label=false
compound=CCCCn1c(SCc2nc(-c3cccc(Cl)c3)no2)n[nH]c1=O qualitative_label=false
compound=O=C(c1cccnc1)N1CCN(C(=O)c2ccco2)CC1 qualitative_label=false
compound=Cc1cc(=O)n2c(C(=O)Nc3cccc(C(=O)O)c3)c(C(=O)Nc3cccc(C)c3C)sc2n1 qualitative_label=false
compound=O=C(Cn1ccc2ccnc(-c3cccs3)c21)N1CCOCC1 qualitative_label=false
compound=CCCCNC(=O)c1nnc(C(=O)Nc2cccc(Cl)c2)s1 qualitative_label=true
compound="O=[N+]([O-])c1cccnc1Sc1ccccc1C1=NCCCN1 [CBK115579C]" qualitative_label=false
compound="O=C1NC(=O)C(CC(=O)N2CCN(Cc3nc4ccccc4s3)CC2)S1 (centres unmarked)" qualitative_label=false
compound=N#CCCOc1nc2ccccc2nc1N1CCCC1 qualitative_label=false
compound=CCOc1ccc(S(=O)(=O)N2CCCN(Cc3cccc(C(F)(F)F)c3)CC2)c2cccnc12 qualitative_label=true

* * *

# measurement_protocol: in vitro
# reported_conditions: human, hela cells, % viability
recorded_metric: viability at 28.5 h, 10 µM (%)

compound="O=C(O)c1cccc(N2C(=O)CC(n3cnc4ccccc43)C2=O)c1 (centres unmarked) [CBK291145]" unit_annotation=% assay_value=89.8
compound="CN(C)CCCNC(=O)c1cccc(S(=O)(=O)N2CCCCC2)c1 [CBK304314C]" unit_annotation=% assay_value=91.6
compound="Cn1c2c(ccc1=O)CCCCC2 [CBK005987]" unit_annotation=% assay_value=92
compound="Fc1cccc(-c2nccnc2NCc2cccnc2)c1 [CBK037633]" unit_annotation=% assay_value=88.3
compound="Cc1c(C(=O)N2CCNC(=O)C2C(C)C)cnn1-c1ccc(Br)cc1 (centres unmarked) [CBK306472]" unit_annotation=% assay_value=91.5

* * *

Recorded viability at 28.5 h, 10 µM for the following compounds
# measurement_protocol: in vitro
# reported_conditions: human, hela cells, % viability
recorded_metric: viability at 28.5 h, 10 µM (%)

compound=COc1cc2c(cc1NC(=O)c1cc(-c3cccnc3)nc3ccc(C)cc13)oc1ccccc12 recorded_metric="viability at 28.5 h, 10 µM" unit_annotation=% assay_value=92.1
compound=N#Cc1ccc(CN2CCCN(S(=O)(=O)c3ccc(C(=O)c4ccccc4)cc3)CC2)cc1 recorded_metric="viability at 28.5 h, 10 µM" unit_annotation=% assay_value=89.9
compound=CS(=O)(=O)N(Cc1ccccc1)c1ccc(C(=O)Nc2ccc(-c3ccccc3)cc2)cc1 recorded_metric="viability at 28.5 h, 10 µM" unit_annotation=% assay_value=90.6
compound="CC1(C#N)CCCN(C(=O)NC2CCN(Cc3cccc(O)c3)CC2)C1 (stereo not shown)" recorded_metric="viability at 28.5 h, 10 µM" unit_annotation=% assay_value=88.2

Values compiled from paper PMC12040169.
